- Tested on: Cocklebur
- METHOD NOTES: pre-emergence herbicide test
- Assay type: in vivo
- APPLIED CONDITIONS: Xanthium strumarium, pre-emergence, 0.25 lb/A; read-out: % plant inhibition
READOUT KIND: inhibition at 280.212 g/ha (%)
Reply with just the number (in %).

Past entries and their recorded results:
Cc1c(-c2cc(C(=O)NC(C)C)c(Cl)cc2F)nn(C)c1C(F)(F)F = 25
Cc1c(-c2cc(C(=O)OCC3CNCCO3)c(Cl)cc2F)nn(C)c1C(F)(F)F (stereo not shown) = 0

**Query** What value of inhibition at 280.212 g/ha has been recorded for this entry: "CCC(CC)COC(=O)c1cc(-c2nn(C)c(C(F)(F)F)c2C)c(F)cc1Cl"
**Result** 10

**Query** // query: "Cc1c(-c2cc(C(=O)OCC(C)C)c(Cl)cc2F)nn(C)c1C(F)(F)F"
**Result** 50

**Query** // query: "CC(C)OC(=O)c1cc(-c2nn(C)c(C(F)(F)F)c2CO)c(F)cc1Cl"
**Result** 15

**Query** // query: CCC(C)OC(=O)c1cc(-c2nn(C)c(C(F)(F)F)c2C)c(F)cc1Cl (stereo not shown)
**Result** 75

**Query** // query: "COCCOC(=O)c1cc(-c2nn(C)c(C(F)(F)F)c2C)c(F)cc1Cl"
**Result** 20

**Query** // query: "Cc1c(-c2cc(C(=O)OCC(=O)c3ccccc3)c(Cl)cc2F)nn(C)c1C(F)(F)F"
**Result** 45

**Query** // query: "Cc1c(-c2cc(CSC(C)C)c(Cl)cc2F)nn(C)c1C(F)(F)F"
**Result** 15

**Query** // query: "CCOC(=O)CCCOC(=O)c1cc(-c2nn(C)c(C(F)(F)F)c2C)c(F)cc1Cl"
**Result** 40
